Every entry's value here was drawn from PubChem BioAssay.

system: Sonic hedgehog protein (Shh); test: small-molecule binders of Shh protein, primary screen, biochemical, small-molecule microarray, 635/667 nm fluorescence (AID 1151); settings: small-molecule microarray binding, 635 nm fluorescence; higher = more signal;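 also: Shh protein binding to compounds spotted on small-molecule microarray slides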
# cutoff 2 applies to composite z-score; >= gives Yes, < gives No

Is reported composite z-score greater than or equal to 2 here: [N-]=[N+]=NCc1ccccc1C[C@]1(C(N)=O)N=C(c2ccc(OCCCO)cc2)O[C@H]1c1ccccc1 No

Identify whether the reported composite z-score of the following compound is 2 or greater: O=C1O[C@@H](c2ccccc2)[C@@H](c2ccccc2)N2[C@@H](c3ccccc3OCCO)[C@]3(C(=O)Nc4ccc(C#CCCO)cc43)[C@@H](C(=O)N3CCCCCCC3)[C@H]12 No

Record COc1ccc(CCNC(=O)[C@@H]2c3ccccc3C(=O)N(Cc3cc(C(F)(F)F)cc(C(F)(F)F)c3)[C@H]2c2ccc(CO)cc2)cc1 ; criterion: composite z-score no lower than 2. Met? No

Hello, I need to know if CCOC(=O)c1ccc(NC(=O)O[C@H]2[C@H](OC(=O)Nc3ccc4c(c3)OCO4)[C@@H](OC(=O)Nc3ccc4c(c3)OCO4)[C@@H](OC)O[C@@H]2CO)cc1 has measured composite z-score not below 2. Thanks! No

Record CCOC(=O)C[C@H]1[C@H](OC(=O)c2cc3ccccc3oc2=O)[C@@H](NC(=O)c2ccc(-c3ccccc3)cc2)c2cc(OCCCO)ccc2N1C(=O)c1ccccc1 ; criterion: composite z-score no lower than 2. Met? No

Does CC(=O)NCCCC[C@@H]1NC(=O)[C@H]2C[C@@H](C(=O)NCCCC[N+](C)(C)C)[C@@H](c3cccc(OCCO)c3)N2C1=O have a reported composite z-score of at least 2? Yes
